Documented GI50 across a set of compounds
# Test system: OVCAR-8
# Experiment Description: NCI tumour cell line growth inhibition, 48 h
Active and inactive are the calls of the source. Rule as the data show it: active = GI50 up to about 1.1 µM and inactive = higher.
Measured Property: GI50

Compound: O=C1C2=C(C(c3ccccc3)=C1c1ccccc1)c1ccccc1C1(c3ccccc3)C2=C(O)C(c2ccccc2)=C1c1ccccc1 (stereo not given)
Reported Measurement: > 100 µM (inactive)
//
Compound: C=CCOC(C)n1c(C)c(Br)c(=O)[nH]c1=O (stereo not given)
Reported Measurement: > 100 µM (inactive)
//
Compound: Cc1[nH]c2ncn(/N=C/c3ccccc3)c(=N)c2c1Cc1ccccc1
Reported Measurement: > 100 µM (inactive)
//
Compound: Nc1ccc(C(=O)O)cc1.Nc1nc(N)c2nc[nH]c2n1
Reported Measurement: 22.1 µM (inactive)
//
Compound: CCOC(=O)c1nnc2c(C#N)c(-c3ccccc3)c(C)n2c1N
Reported Measurement: 28.4 µM (inactive)
